FYI, the data here is from patent US5744121A.

procedure_summary: Regional brain distribution in rats after iv injection
Assay type: in vivo, Male Sprague-Dawley rats
setup_conditions: rat, cortex; 60 min, iv, rats (Table III); read-out: Regional distribution, cortex
test_readout: tissue uptake at 1 h (%ID/g)
Give your result in %ID/g as a bare value.

Prompt: Tell me the measured tissue uptake at 1 h of COc1ccccc1N1CCN(CCN(C(=O)c2ccc([123I])cc2)c2ccccn2)CC1 [[^123 I] 1a] , please.
Completion: 0.061

====

procedure_summary: Regional brain distribution in rats after iv injection
Format: in vivo, Male Sprague-Dawley rats
setup_conditions: rat, striatum; 120 min, iv, rats (Table III); read-out: Regional distribution, striatum
test_readout: tissue uptake at 2 h (%ID/g)
Give your result in %ID/g as a bare value.

Prompt: Tell me the measured tissue uptake at 2 h of COc1ccccc1N1CCN(CCN(C(=O)c2ccc([123I])cc2)c2ccccn2)CC1 [[^123 I] 1a] , please.
Completion: 0.021

====

procedure_summary: Regional brain distribution in rats after iv injection
Format: in vivo, Male Sprague-Dawley rats
setup_conditions: rat, hippocampus; 60 min, iv, rats (Table III); read-out: Regional distribution, hippocampus
test_readout: tissue uptake at 1 h (%ID/g)
Give your result in %ID/g as a bare value.

Prompt: Tell me the measured tissue uptake at 1 h of COc1ccccc1N1CCN(CCN(C(=O)c2ccc([123I])cc2)c2ccccn2)CC1 [[^123 I] 1a] , please.
Completion: 0.127

====

procedure_summary: Regional brain distribution in rats after iv injection
Assay type: in vivo, Male Sprague-Dawley rats
setup_conditions: rat, hypothalamus; 120 min, iv, rats (Table IV); read-out: Regional distribution, hypothalamus
test_readout: tissue uptake at 2 h (%ID/g)
Give your result in %ID/g as a bare value.

Prompt: Tell me the measured tissue uptake at 2 h of COc1ccccc1N1CCN(CCN(C(=O)c2cccc([123I])c2)c2ccccn2)CC1 [[^123 I] 1b] , please.
Completion: 0.01

====

procedure_summary: Regional brain distribution in rats after iv injection
Assay type: in vivo, Male Sprague-Dawley rats
setup_conditions: rat, hypothalamus; 30 min, iv, rats (Table III); read-out: Regional distribution, hypothalamus
test_readout: tissue uptake at 0.5 h (%ID/g)
Give your result in %ID/g as a bare value.

Prompt: Tell me the measured tissue uptake at 0.5 h of COc1ccccc1N1CCN(CCN(C(=O)c2ccc([123I])cc2)c2ccccn2)CC1 [[^123 I] 1a] , please.
Completion: 0.14

====

procedure_summary: Regional brain distribution in rats after iv injection
Format: in vivo, Male Sprague-Dawley rats
setup_conditions: rat, cerebellum; 2 min, iv, rats (Table IV); read-out: Regional distribution, cerebellum
test_readout: tissue uptake at 2 min

Prompt: Tell me the measured tissue uptake at 2 min of COc1ccccc1N1CCN(CCN(C(=O)c2cccc([123I])c2)c2ccccn2)CC1 [[^123 I] 1b] , please.
Completion: 0.47 %ID/g

====

procedure_summary: Regional brain distribution in rats after iv injection
Type: in vivo, Male Sprague-Dawley rats
setup_conditions: rat, cerebellum; 30 min, iv, rats (Table III); read-out: Regional distribution, cerebellum
test_readout: tissue uptake at 0.5 h

Prompt: Tell me the measured tissue uptake at 0.5 h of COc1ccccc1N1CCN(CCN(C(=O)c2ccc([123I])cc2)c2ccccn2)CC1 [[^123 I] 1a] , please.
Completion: 0.07 %ID/g
